Target: T1, recombinant human FGF23 (R179Q) (human, UniProt Q9GZV9 25-251)
T1 construct: also called rhFGF23(R179Q); hFGF23(R179Q)
T1 sequence (looked up): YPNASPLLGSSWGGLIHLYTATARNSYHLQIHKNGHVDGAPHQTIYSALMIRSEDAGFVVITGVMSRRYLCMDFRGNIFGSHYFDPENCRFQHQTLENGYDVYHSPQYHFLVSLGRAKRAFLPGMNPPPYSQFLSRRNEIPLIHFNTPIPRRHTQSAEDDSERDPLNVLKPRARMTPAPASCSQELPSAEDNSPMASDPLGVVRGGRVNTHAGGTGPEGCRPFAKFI
Assay: SPR, antibody captured on hIgG chip, human FGF23 analyte
pKd: −log10 of the molar value.
Each item that follows carries a reported pKd.

Binder	pKd
UGX205 (antibody, human IgG1, kappa, V domains shown, also called HC:S59E, LC:Y94D; S59E/Y94D) VH: QVQLVQSGAEVKKPGASVKVSCKASGYTFTNHYMHWVRQAPGQGLEWMGIINPISGSTENAQKFQGRVTMTRDTSTSTVYMELSSLRSEDTAVYYCARDIVDAFDFWGQGTMVTVSS VL: AIQLTQSPSSLSASVGDRVTITCRASQGISSALVWYQQKPGKAPKLLIYDASSLESGVPSRFSGSGSGTDFTLTISSLQPEDFATYYCQQFNDDFTFGPGTKVDIKR	11.39
UGX144 (antibody, human IgG1, kappa, V domains shown, also called LC:Y94D; Y94D) VH: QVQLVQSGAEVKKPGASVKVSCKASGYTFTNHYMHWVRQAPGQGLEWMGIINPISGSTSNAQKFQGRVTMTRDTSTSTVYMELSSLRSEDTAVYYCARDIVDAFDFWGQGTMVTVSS VL: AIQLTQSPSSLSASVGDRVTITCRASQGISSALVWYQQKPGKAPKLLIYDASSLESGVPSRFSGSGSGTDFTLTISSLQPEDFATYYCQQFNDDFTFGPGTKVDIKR	11.24
UGX203 (antibody, human IgG1, kappa, V domains shown, also called HC:S59E, LC:S52D; S59E/S52D) VH: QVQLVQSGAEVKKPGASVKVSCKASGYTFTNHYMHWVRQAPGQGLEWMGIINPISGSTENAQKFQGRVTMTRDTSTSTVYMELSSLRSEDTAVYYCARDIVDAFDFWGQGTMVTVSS VL: AIQLTQSPSSLSASVGDRVTITCRASQGISSALVWYQQKPGKAPKLLIYDADSLESGVPSRFSGSGSGTDFTLTISSLQPEDFATYYCQQFNDYFTFGPGTKVDIKR	10.94
UGX145 (antibody, human IgG1, kappa, V domains shown, also called UGX042; LC:Y94E) VH: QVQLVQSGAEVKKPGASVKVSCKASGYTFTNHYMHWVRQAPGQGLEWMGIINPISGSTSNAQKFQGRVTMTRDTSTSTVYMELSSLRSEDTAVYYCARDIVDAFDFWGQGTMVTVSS VL: AIQLTQSPSSLSASVGDRVTITCRASQGISSALVWYQQKPGKAPKLLIYDASSLESGVPSRFSGSGSGTDFTLTISSLQPEDFATYYCQQFNDEFTFGPGTKVDIKR	10.88

Source of measurements: patent US20260250371A1
